Test system: RXF 393 renal
protocolSummary: NCI tumour cell line growth inhibition, 48 h
measurementKind: TGI

# compound, measurementKind, result
data = [
    ("O=Cc1cn(CCCCCCCCCCCCn2cc(C=O)c3ccccc32)c2ccccc12", "TGI", "> 100 µM"),
    ("CN(C)c1nc2ccccc2[nH]1", "TGI", "> 100 µM"),
    ("CN(C)/C=N/c1nc2c(ncn2C2OC(CO)C(O)C2O)c(=O)[nH]1 (configuration not stated)", "TGI", "> 100 µM"),
    ("CN(C)N=Nc1ccc(NC=O)cc1", "TGI", "> 100 µM"),
    ("Cc1ccc(S(=O)(=O)N(CC(=O)O)c2ccccc2)cc1", "TGI", "> 100 µM"),
    ("CNC(=O)N(C)N=NCCCl", "TGI", "> 100 µM"),
    ("O=[N+]([O-])c1ccc(C2=Nn3cnnc3SC2)o1", "TGI", "32.9 µM"),
    ("COc1cc(C(Cc2ccccc2)NC(C)=O)oc(=O)c1 (configuration not stated)", "TGI", "> 100 µM"),
    ("O=C(O)c1ccc(Nc2c3ccccc3nc3ccccc23)cc1", "TGI", "> 100 µM"),
    ("CC1(C)COC(c2cccnc2/C=N/O)=N1", "TGI", "> 100 µM"),
    ("CC(C)(C)[Si](OC1CC(n2cnc3c(N)ncnc32)OC1CO)(c1ccccc1)c1ccccc1 (configuration not stated)", "TGI", "29.5 µM"),
    ("O=C(O)c1ccc(N=C(C(=Nc2ccc(C(=O)O)cc2)c2ccccc2)c2ccccc2)cc1", "TGI", "> 100 µM"),
    ("O=C(CCn1[nH]c(=O)c(Cl)c(Cl)c1=O)NO", "TGI", "> 100 µM"),
    ("CC1=C(C(=O)Nc2ccccc2)C(c2ccccc2)C(C(=O)Nc2ccccc2)=C(C)N1", "TGI", "> 100 µM"),
    ("NS(=O)(=O)c1ccc(N=Nc2nc3[nH]c(=O)[nH]c(=O)c3[nH]2)cc1", "TGI", "> 100 µM"),
    ("FC(F)(F)c1ccc(N=C/C=C(/Nc2ccc(C(F)(F)F)cc2)c2ccc(Cl)cc2)cc1", "TGI", "26.4 µM"),
    ("CN=c1nc2sc3c(c2c(NC(=S)NC)s1)CCCC3", "TGI", "82.9 µM"),
]
